Target: CDK4/cyclin D1 (Homo sapiens, UniProt P11802)
Construct: GST
Sequence (P11802 whole entry): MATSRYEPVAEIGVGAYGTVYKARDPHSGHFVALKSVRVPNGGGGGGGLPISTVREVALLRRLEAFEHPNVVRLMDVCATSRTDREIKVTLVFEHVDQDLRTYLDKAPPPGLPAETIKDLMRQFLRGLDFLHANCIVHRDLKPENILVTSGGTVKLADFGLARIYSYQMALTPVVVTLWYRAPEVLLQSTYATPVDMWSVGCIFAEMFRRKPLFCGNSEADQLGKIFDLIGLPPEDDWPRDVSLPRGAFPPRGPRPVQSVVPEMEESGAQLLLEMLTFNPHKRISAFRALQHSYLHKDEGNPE
Sequence (P24385 whole entry partner): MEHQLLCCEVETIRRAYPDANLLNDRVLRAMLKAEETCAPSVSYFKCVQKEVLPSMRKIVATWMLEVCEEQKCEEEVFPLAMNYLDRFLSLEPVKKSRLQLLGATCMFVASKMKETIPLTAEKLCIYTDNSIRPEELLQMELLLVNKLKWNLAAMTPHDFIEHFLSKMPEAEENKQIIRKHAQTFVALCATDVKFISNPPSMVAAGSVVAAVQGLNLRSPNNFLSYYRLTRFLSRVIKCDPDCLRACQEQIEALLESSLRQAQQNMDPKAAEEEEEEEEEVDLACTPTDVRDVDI
Test: Inhibitory activity against CDK4 (CDK4/cyclin D1 kinase assay, GST-Rb substrate, 32P-ATP)
Conditions: 100 μM ATP, 30° C., 30 minutes
pIC50: −log10 of the molar value.
MEASURED_ATTRIBUTE: pIC50

Solved cases below.
For the compound "O=c1c(O)c(-c2ccc(O)cc2)oc2c(N3CCCS3(=O)=O)cc(NC3CCNCC3)cc12" , what pIC50 is on record?
5.77

For the compound "Nc1cc(N2CCCS2(=O)=O)c2oc(-c3ccc(O)cc3)c(O)c(=O)c2c1" , what pIC50 is on record?
5.92

For the compound "O=c1c(O)c(-c2ccc(O)cc2)oc2c(N3CCCS3(=O)=O)cc(Nc3ccccc3)cc12" , what pIC50 is on record?
5.52

For the compound "Cc1cc(C2CCN(C)CC2)c2oc(-c3ccc(O)c(C)c3)c(O)c(=O)c2c1" , what pIC50 is on record?
6.19

For the compound "CNc1cc(N2CCCS2(=O)=O)c2oc(-c3ccc(O)cc3)c(O)c(=O)c2c1" , what pIC50 is on record?
6.27

For the compound "Cc1cc(N2CCCS2(=O)=O)c2oc(-c3ccc(O)c(Cl)c3)c(O)c(=O)c2c1" , what pIC50 is on record?
6.71

For the compound "Cc1cc(C2CCN(C)CC2)c2oc(-c3ccc(O)c(Cl)c3)c(O)c(=O)c2c1" , what pIC50 is on record?
6.92

A = Cc1cc(NC(N)=O)c2oc(-c3ccc(O)c(NC(N)=O)c3)c(O)c(=O)c2c1
B = CN(CCO)c1cc(N2CCCS2(=O)=O)c2oc(-c3ccc(O)cc3)c(O)c(=O)c2c1
For this pair, A and B , which shows a numerically higher pIC50? Reply with the label of the item you choose.
B

* * *

Target: CDK2/cyclin A (Homo sapiens, UniProt P24941)
Construct: His
Experiment: Inhibitory activity against CDK2 (CDK2/cyclin A kinase assay, GST-Rb substrate, 32P-ATP)
Conditions: 100 μM ATP, 30° C., 30 minutes
MEASURED_ATTRIBUTE: IC50 (nM)

Solved cases below.
Kindly state the measured IC50 obtained for O=c1c(O)c(-c2ccc(O)cc2)oc2c(N3CCCS3(=O)=O)cc(Nc3ccccc3)cc12 [Compound 31] with CDK2/cyclin A (Homo sapiens, UniProt P24941).
1400

Kindly state the measured IC50 obtained for Cc1cc(N2CCCS2(=O)=O)c2oc(-c3ccc(O)c(C#N)c3)c(O)c(=O)c2c1 [Compound 19] with CDK2/cyclin A (Homo sapiens, UniProt P24941).
1400

Kindly state the measured IC50 obtained for Cc1cc(N2CCCS2(=O)=O)c2oc(-c3ccc(O)cc3)c(O)c(=O)c2c1 [Compound 15] with CDK2/cyclin A (Homo sapiens, UniProt P24941).
250

Kindly state the measured IC50 obtained for Cc1cc(N2CCCS2(=O)=O)c2oc(-c3ccc(O)c(C)c3)c(O)c(=O)c2c1 [Compound 22] with CDK2/cyclin A (Homo sapiens, UniProt P24941).
700

Kindly state the measured IC50 obtained for CNc1cc(N2CCCS2(=O)=O)c2oc(-c3ccc(O)c(Cl)c3)c(O)c(=O)c2c1 [Compound 37] with CDK2/cyclin A (Homo sapiens, UniProt P24941).
200

Kindly state the measured IC50 obtained for Cc1cc(-c2cc[n+](C)cc2)c2oc(-c3ccc(O)c(Cl)c3)c(O)c(=O)c2c1 [Compound 40] with CDK2/cyclin A (Homo sapiens, UniProt P24941).
700

P = Cc1cc(C2CCN(C)CC2)c2oc(-c3ccc(O)cc3)c(O)c(=O)c2c1 [Compound 41]
Q = Cc1cc(N2CCCS2(=O)=O)c2oc(-c3ccc(O)c(CO)c3)c(O)c(=O)c2c1 [Compound 23]
R = Cc1cc(N)c2oc(-c3ccc(N)cc3)c(O)c(=O)c2c1 [Compound 11]
S = CCN(CC)c1cc(N2CCCS2(=O)=O)c2oc(-c3ccc(O)cc3)c(O)c(=O)c2c1 [Compound 27]
T = O=c1c(O)c(-c2ccc(O)cc2)oc2c(N3CCCS3(=O)=O)cc(NC3CCCCC3)cc12 [Compound 30]
List the 5 entries from lowest IC50 to highest IC50 value. Provide the labels, sequenced as the question asks.
P, Q, T, S, R

* * *

Target: CDK2/cyclin A (Homo sapiens)
Construct: His
Assay: Inhibitory activity against CDK2 (CDK2/cyclin A kinase assay, GST-Rb substrate, 32P-ATP)
Details: 100 μM ATP, 30° C., 30 minutes
MEASURED_ATTRIBUTE: IC50 (µM)

Solved cases below.
For the compound O=c1c(O)c(-c2ccc(O)cc2)oc2c(N3CCCS3(=O)=O)cc(NCc3ccccc3)cc12 [Compound 28] , what IC50 is on record?
2.24

For the compound CN(C)c1cc(N2CCCS2(=O)=O)c2oc(-c3ccc(O)cc3)c(O)c(=O)c2c1 [Compound 26] , what IC50 is on record?
0.22

A = Nc1cc(N2CCCS2(=O)=O)c2oc(-c3ccc(O)c(Cl)c3)c(O)c(=O)c2c1 [Compound 35]
B = Cc1cc(NC(N)=O)c2oc(-c3ccc(O)c(NC(N)=O)c3)c(O)c(=O)c2c1 [Compound 10]
Pick one, A or B : lowest reported IC50. Reply with the label of the item you choose.
A
(A: 0.07 µM, B: 30 µM)

Where these numbers come from: patent US6683095B2
